System: HCT-15
Returns: string. Value is class 1 if measured GI50 is below 40 µM, and class 0 if it is greater than or equal to it.

Some entries whose results are on file:
| molecule | labelValue |
| --- | --- |
| CCOC(=O)c1ccc(-n2c(SCC)nc3sc(C)c(C)c3c2=O)cc1 | class 0 |
| O=C1CC(NC2CC(=O)c3c(Br)sc(Br)c32)c2c(Br)sc(Br)c21 (stereo not given) | class 1 |
| CO/N=C1\CC(NC(=O)CNC(=O)OC(C)(C)C)c2ccsc21 (stereo not given) | class 0 |
| COc1ccc(CNc2cnc3ccc(N)cc3n2)cc1OC | class 0 |
| N=c1n(CC(=O)NC23CC4CC(CC(C4)C2)C3)c2ccccc2n1CC(=O)NC12CC3CC(CC(C3)C1)C2 | class 1 |
| CC(=O)Nc1ccc(CNc2cc(=O)[nH]c(=O)[nH]2)cc1 | class 0 |
| CCCCCCNCCc1c[nH]cn1 | class 0 |
| C/C=C(\C)c1cc(=O)c2c(C)cc3c(c2o1)C(=O)c1c(O)c(C2CC(C)(N(C)C)C(OC(C)=O)C(C)O2)cc(C2CC(N(C)C)C(O)C(C)O2)c1C3=O (stereo not given) | class 1 |

Now look at this entry.
Threshold test, GI50 < 40 µM: CCSCCC(N)C(=O)O (stereo not given)
class 0

The reported numbers originate from ChEMBL document CHEMBL1201862.
